Protein target, amino acids: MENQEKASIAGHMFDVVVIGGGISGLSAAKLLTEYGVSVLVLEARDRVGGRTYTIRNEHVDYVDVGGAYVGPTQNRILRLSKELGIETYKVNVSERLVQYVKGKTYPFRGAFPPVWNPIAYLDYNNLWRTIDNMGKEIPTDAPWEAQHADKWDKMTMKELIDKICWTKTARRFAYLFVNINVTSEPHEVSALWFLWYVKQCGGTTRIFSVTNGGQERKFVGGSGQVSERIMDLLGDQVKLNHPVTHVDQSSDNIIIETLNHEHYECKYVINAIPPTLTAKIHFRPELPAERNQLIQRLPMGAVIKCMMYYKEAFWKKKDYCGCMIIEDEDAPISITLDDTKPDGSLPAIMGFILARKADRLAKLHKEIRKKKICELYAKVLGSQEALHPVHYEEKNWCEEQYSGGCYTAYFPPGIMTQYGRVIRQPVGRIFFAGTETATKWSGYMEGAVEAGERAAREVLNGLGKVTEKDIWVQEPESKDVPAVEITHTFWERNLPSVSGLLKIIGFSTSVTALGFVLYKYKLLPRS
Can you tell me pKi for the items I'm about to list?
pKi is a log-scale quantity: -log10 of the concentration expressed in molar.

Request: Would you kindly share the measured pKi for O=C1c2cccc(O)c2C(=O)c2c(O)cc(CO)cc21 [Compound 9, aloe-emodin] ?
Result: 6.30

Request: If you can, please state the reported pKi value of COc1cc(O)cc2c1C(=O)c1c(O)cc(C)cc1C2=O [Compound 12, questin] .
Result: 6.89

----------
- studySystem: hMAO-B (Homo sapiens)
- Sequence (P27338 1-520): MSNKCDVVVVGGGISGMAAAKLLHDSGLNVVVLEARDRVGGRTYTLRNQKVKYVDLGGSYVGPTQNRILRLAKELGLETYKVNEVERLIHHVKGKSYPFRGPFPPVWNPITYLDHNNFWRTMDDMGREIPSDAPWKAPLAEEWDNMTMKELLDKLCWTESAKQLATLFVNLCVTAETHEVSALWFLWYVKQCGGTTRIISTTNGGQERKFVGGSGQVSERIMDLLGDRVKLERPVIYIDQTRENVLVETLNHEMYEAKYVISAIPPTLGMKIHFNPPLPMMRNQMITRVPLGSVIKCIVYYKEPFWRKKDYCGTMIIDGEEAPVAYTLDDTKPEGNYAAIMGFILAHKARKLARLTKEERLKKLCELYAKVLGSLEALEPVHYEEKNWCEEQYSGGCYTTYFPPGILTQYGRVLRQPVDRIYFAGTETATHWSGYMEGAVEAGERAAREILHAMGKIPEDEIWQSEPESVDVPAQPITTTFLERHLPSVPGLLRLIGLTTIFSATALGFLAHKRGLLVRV
assayEndpoint: pKi
In textbook form, pKi equals minus log to base ten of the concentration in mol/L.

Request: Give the measured pKi of `COc1cc(O)cc2c1C(=O)c1c(O)cc(C)cc1C2=O` .
Result: 5.38

----------
- studySystem: hMAO-B (Homo sapiens, UniProt P27338)
- Sequence (P27338 1-520): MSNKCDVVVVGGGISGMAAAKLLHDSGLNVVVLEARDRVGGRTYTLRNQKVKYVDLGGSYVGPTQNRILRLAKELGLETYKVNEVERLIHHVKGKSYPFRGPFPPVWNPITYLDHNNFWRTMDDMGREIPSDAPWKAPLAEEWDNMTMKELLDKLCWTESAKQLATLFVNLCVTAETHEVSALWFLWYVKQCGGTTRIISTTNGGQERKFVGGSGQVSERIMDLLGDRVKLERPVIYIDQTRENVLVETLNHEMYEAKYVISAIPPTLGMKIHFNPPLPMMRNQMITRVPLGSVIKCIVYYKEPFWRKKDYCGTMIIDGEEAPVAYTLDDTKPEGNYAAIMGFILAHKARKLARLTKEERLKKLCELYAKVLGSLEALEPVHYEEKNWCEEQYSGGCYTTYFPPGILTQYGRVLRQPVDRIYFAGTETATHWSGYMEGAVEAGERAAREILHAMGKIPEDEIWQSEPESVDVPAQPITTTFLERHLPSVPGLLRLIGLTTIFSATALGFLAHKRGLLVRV
assayEndpoint: pIC50
// pIC50 is dimensionless: -log10 of concentration (M)

Request: May I ask what pIC50 has been recorded for COc1cc(O)c2c(O)c3c(=O)cc(C)oc3cc2c1 [Compound 13, rubrofusarin] ?
Result: 4.04

Request: Fill in the blank: the reported pIC50 of COc1cc(O)cc2c1C(=O)c1c(O)cc(C)cc1C2=O [Compound 12, questin] is ____.
Result: 4.98

Request: If you can, please state the reported pIC50 value of COc1c(O)cc2c(c1O)C(=O)c1c(cc(C)c(O)c1OC)C2=O [Compound 5, aurantio-obtusin] .
Result: 3.76

Request: Requested read-out: pIC50. Entry: Cc1cc(O)c2c(c1)C(=O)c1cc(O)cc(O)c1C2=O [Compound 10, emodin]
Result: 4.26

----------
- studySystem: UniProt P21397
- methodSummary: biochemical
- runParameters: IC50 (μM) hMAO-A (n = 3), Table 2; log dose inhibition curve, mean ± SD of triplicate
Record form. Attribute: IC50. Fill in for each entry.
Number only, in µM; omit the unit.

Request: What reported IC50 corresponds to COc1c(O)cc2c(c1O)C(=O)c1c(cc(C)c(O)c1OC)C2=O [Compound 5, aurantio-obtusin] on UniProt P21397?
Result: 27.2

Request: Entry `COc1cc2c(c(OC)c1OC)C(=O)c1c(cc(C)c(O)c1OC)C2=O` , system UniProt P21397: what IC50 was measured?
Result: 328

Request: What measured IC50 is associated with `Cc1cc(O)c2c(c1)C(=O)c1cc(O)cc(O)c1C2=O` on UniProt P21397?
Result: 23.3

Request: # value lookup — system UniProt P21397, readout IC50, item `COc1c(O)c(C)cc2c1C(=O)c1c(O)cccc1C2=O`
Result: 31.8

Request: Record `O=C1c2cccc(O)c2C(=O)c2c(O)cc(CO)cc21` : what is its IC50 with UniProt P21397?
Result: 2.47

Request: Notebook: pull reported IC50 for UniProt P21397, entry `COc1cc(O)cc2c1C(=O)c1c(O)cc(C)cc1C2=O`
Result: 0.17
